assayExplanation: Cytotoxicity against human MT4 cells assessed as reduction in cell viability after 5 days by MTT assay
Assay type: cell-based
CC50 at 120 h strictly under 10 µM means Met; at 10 µM or over means Not met.

| structure | category |
| --- | --- |
| COc1cc(COc2ccnc(Nc3ccc(C#N)cc3)n2)cc(OC)c1 | Not met |
| N#Cc1ccc(Nc2nccc(OCc3cccc(C(F)(F)F)c3)n2)cc1 | Not met |
| Cc1ccccc1COc1ccnc(Nc2ccc(C#N)cc2)n1 | Not met |
| N#Cc1ccc(Nc2nccc(OCc3cccnc3)n2)cc1 | Met |
| Cc1ccnc2c1NC(=O)c1cccnc1N2C1CC1 | Not met |
| N#Cc1ccc(Nc2nccc(OCc3ccccc3Cl)n2)cc1 | Not met |
| N#Cc1ccc(Nc2nccc(OCc3ccc(Cl)cc3)n2)cc1 | Not met |
| N#Cc1ccc(Nc2nccc(NCc3ccccn3)n2)cc1 | Met |
| Cc1cc(C#N)cc(C)c1Oc1nc(Nc2ccc(C#N)cc2)nc(N)c1Br | Met |
| N#Cc1ccc(Nc2nccc(OCc3ccc(Br)cc3)n2)cc1 | Not met |
| COc1cccc(COc2ccnc(Nc3ccc(C#N)cc3)n2)c1 | Not met |

###

As shown below, each of these compounds has a reported selectivity ratio value.
assayExplanation: Selectivity index, ratio of CC50 for human MT4 cells to EC50 for HIV-1 3B wild type reverse transcriptase infected in human MT4 cells
Format: toxicity, cell-based
testConditions: read-out: Ratio CC50/EC50

| structure | selectivity ratio |
| --- | --- |
| N#Cc1ccc(Nc2nccc(OCc3cccc(C#N)c3)n2)cc1 | 23 |
| N#Cc1ccc(Nc2nccc(OCc3ccc(Cl)cc3)n2)cc1 | 186 |
| Cc1ccc(COc2ccnc(Nc3ccc(C#N)cc3)n2)cc1 | 495 |
| N#Cc1ccc(COc2ccnc(Nc3ccc(C#N)cc3)n2)cc1 | 149 |
| N#Cc1ccc(Nc2nccc(OCc3ccc(Br)cc3)n2)cc1 | 3.4 |
| N#Cc1ccc(Nc2nccc(OCc3cc(F)ccc3Br)n2)cc1 | 4870 |

###

assayExplanation: Selectivity index, ratio of CC50 for human MT4 cells to EC50 for HIV-1 3B wild type reverse transcriptase infected in human MT4 cells
Assay type: toxicity, cell-based
testConditions: read-out: Ratio CC50/EC50
selectivity ratio strictly under 1000 means TRUE; at 1000 or over means FALSE.

| structure | category |
| --- | --- |
| N#Cc1ccc(Nc2nccc(OCc3ccccc3C(F)(F)F)n2)cc1 | TRUE |
| CN(C)c1ccnc(Nc2ccc(C#N)cc2)n1 | TRUE |
| N#Cc1ccc(Nc2nccc(NCc3ccccn3)n2)cc1 | FALSE |
| Cc1ccccc1COc1ccnc(Nc2ccc(C#N)cc2)n1 | TRUE |
| N#Cc1ccc(Nc2nccc(OCc3cccnc3)n2)cc1 | TRUE |
| N#Cc1ccc(Nc2nccc(OCc3ccc4ccccc4c3)n2)cc1 | FALSE |
| N#Cc1ccc(Nc2nccc(OCc3ccccc3C#N)n2)cc1 | FALSE |
| N#Cc1ccc(Nc2nccc(OCc3cccc(F)c3)n2)cc1 | FALSE |
| Cc1cccc(COc2ccnc(Nc3ccc(C#N)cc3)n2)c1 | FALSE |
| N#Cc1ccc(Nc2nccc(OCc3cccc4ccccc34)n2)cc1 | TRUE |
| N#Cc1ccc(Nc2nccc(OCc3cccc(Cl)c3)n2)cc1 | FALSE |
| N#Cc1ccc(Nc2nccc(OCc3cccc(Br)c3)n2)cc1 | FALSE |
